- test summary: NCI Yeast Anticancer Drug Screen. Data for the mlh1 rad18 strain (AID 175)
- conditions: S. cerevisiae mlh1 rad18 strain growth inhibition; at 50.0 µM; hits give high values
- Protocol: Growth inhibition of yeast strains with defined genetic alterations is measured as a screen for potential anti-cancer activity. Selected strains with alterations in DNA damage repair or cell cycle control were exposed to compounds and growth inhibition was measured relative to vehicle treated controls. The strain used in this assay is mlh1 rad18
This is part of a sample that, as a whole, favours compounds with a hit. Of some 79,000 tested, about 15% had one in any assay.
measurement name: growth inhibition (%)
# unit: % | format: bare number

Some entries whose results are on file:
| molecule | value |
| --- | --- |
| Cc1ccc(C2SC(N)=Nc3c2c(C)nn3C(=O)c2ccncc2)cc1 (stereo not given) | -23.6 |
| COc1ccc(/C=C/C(=O)CC(=O)/C=C/c2ccc(OC)cc2)cc1 | 10.8 |
| CC(=O)OC1C[C@@](C)(O)[C@@]23O[C@@H]2[C@@H]2O[C@]2(C)C3C2OC(=O)C(C)[C@H]12 (stereo not given in full) | -9.6 |
| C=CC1=C(C)C2=NC1=CC1=NC(=CC3=C(C)C4=C(O)CC(=C5NC(=C2)C(C)C5CCC(=O)OC)C4=N3)C(CC)=C1C (stereo not given) | 22.2 |
| Cn1c(=O)c2[nH]c(=O)n(C)c2n(C)c1=O | 16.1 |

# growth inhibition lookup, item CC1(C)CCCCC1/C=C/C(CC(O)(C(F)(F)F)C(F)(F)F)=N\Nc1ccc([N+](=O)[O-])cc1[N+](=O)[O-] (stereo not given)
26.6

Please give the result for "CC(=O)OC/C=C1/CC[C@H]2[C@@H]3CCC4=CC(=O)[C@H](C)C[C@]4(C)[C@H]3[C@@H](O)C[C@]12C" too.
-21.8

Please give the result for "C=CCOC(=O)c1cccc(C(=O)OCC=C)c1" too.
33.8

Please give the result for "O=C1CCCC/C1=C/c1ccccc1" too.
8.05

Please give the result for CN1C(=O)c2ccccc2CC12c1ccccc1C(=O)N2C (stereo not given) too.
4.45

###

- test summary: NCI Yeast Anticancer Drug Screen. Data for the mlh1 rad18 strain (AID 175)
- conditions: S. cerevisiae mlh1 rad18 strain growth inhibition; at 50.0 µM; hits give high values
About 79,000 compounds went through this panel and 15% of them were active in at least one assay; those are over-represented in the sample as a whole.
Measured growth inhibition accompanies every entry in the list below.
# unit: % | format: bare number

Some entries whose results are on file:
| molecule | growth inhibition / % |
| --- | --- |
| NS(=O)(=O)c1ccc(NC(=O)c2cccn3c(=O)c4ccccc4nc23)cc1 | 14.9 |
| CSc1nc(-c2ccc(Cl)cc2)c(C#N)c(=O)n1C1OC(COC(C)=O)C(OC(C)=O)C(OC(C)=O)C1OC(C)=O (configuration not stated) | 23.2 |
| CC(C)CC(C#N)C(=O)O (configuration not stated) | 2.1 |
| O=C(O)c1ccc2c(c1)S(=O)(=O)c1ccccc1C2=O | 17.1 |
| Cc1cccc(NC(=O)Oc2cc(C)c(Cl)cc2C(C)C)c1 | 98 |

# growth inhibition lookup, item "CSc1nnc(N(C(C)C)C(C)C)c2nc[nH]c12"
4.2

Please give the result for "Cc1ccc(C(=O)N(C(C)C)C(C)C)cc1N=NN(C)C" too.
-23.7

Please give the result for "CCCCCCC(C)(C)NC(N)=O" too.
-11.8
